tested system: UniProtKB P11388
Sequence (P11388 whole entry): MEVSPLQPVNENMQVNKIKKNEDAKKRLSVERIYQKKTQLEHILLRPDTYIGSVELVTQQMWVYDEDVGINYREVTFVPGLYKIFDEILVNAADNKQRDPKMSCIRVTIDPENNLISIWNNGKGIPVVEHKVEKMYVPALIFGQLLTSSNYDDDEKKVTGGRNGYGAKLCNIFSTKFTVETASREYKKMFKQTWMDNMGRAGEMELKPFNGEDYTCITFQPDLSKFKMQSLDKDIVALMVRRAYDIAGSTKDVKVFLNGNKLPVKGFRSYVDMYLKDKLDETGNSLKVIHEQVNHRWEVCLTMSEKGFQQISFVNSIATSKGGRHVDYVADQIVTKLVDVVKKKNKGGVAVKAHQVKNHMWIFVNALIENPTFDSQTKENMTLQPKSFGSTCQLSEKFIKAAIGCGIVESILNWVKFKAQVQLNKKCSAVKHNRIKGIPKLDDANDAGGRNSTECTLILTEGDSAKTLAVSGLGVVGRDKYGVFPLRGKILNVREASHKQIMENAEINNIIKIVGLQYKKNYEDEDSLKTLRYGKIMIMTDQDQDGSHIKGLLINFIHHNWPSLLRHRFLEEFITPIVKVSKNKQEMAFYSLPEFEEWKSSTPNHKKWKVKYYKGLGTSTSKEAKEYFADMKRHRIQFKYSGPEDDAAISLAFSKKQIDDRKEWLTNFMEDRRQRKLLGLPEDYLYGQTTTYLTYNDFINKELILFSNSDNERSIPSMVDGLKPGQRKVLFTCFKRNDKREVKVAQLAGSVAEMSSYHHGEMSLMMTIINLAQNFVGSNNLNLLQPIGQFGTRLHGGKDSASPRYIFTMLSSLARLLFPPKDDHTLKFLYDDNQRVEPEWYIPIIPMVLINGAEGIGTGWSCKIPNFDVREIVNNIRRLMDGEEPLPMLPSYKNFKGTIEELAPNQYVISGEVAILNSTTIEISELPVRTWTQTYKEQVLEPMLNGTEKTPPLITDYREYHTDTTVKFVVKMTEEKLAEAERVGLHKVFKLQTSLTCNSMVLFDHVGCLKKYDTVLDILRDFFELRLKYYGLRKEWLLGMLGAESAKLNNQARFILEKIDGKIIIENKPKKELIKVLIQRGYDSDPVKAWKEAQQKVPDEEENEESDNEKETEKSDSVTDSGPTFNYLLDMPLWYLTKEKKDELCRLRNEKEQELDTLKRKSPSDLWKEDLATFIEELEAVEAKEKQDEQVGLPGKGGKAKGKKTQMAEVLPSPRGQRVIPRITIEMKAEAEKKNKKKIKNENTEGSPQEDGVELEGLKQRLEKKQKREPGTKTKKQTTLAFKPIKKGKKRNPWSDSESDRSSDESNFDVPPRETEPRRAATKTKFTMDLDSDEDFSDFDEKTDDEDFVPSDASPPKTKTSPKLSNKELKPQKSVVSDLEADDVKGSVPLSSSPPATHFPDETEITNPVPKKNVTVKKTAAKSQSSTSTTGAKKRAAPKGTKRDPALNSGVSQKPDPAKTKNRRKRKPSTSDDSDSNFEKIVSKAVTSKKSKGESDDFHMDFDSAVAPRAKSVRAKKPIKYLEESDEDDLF
test method notes: Inhibition of Topoisomerase 2 assessed as kinetoplast DNA decatenation at 50 uM after 10 mins by electrophoretic analysis
Calls of active or inactive are those of the source. No cut-off for these calls is given here.
assay metric: inhibition

Request: Report measured inhibition; entry is "COc1cccc2c1C(=O)c1c(O)c3c(c(O)c1C2=O)C[C@@](O)(C(C)=O)C[C@@H]3O[C@H]1C[C@H](NCc2ccc(-c3cn(CCCCCCCC(=O)NO)nn3)cc2)[C@H](O)[C@H](C)O1"
Response: Active

Request: Give a short answer stating reported inhibition for "COc1cccc2c1C(=O)c1c(O)c3c(c(O)c1C2=O)C[C@@](O)(C(C)=O)C[C@@H]3O[C@H]1C[C@H](NCc2ccc(-c3cn(CCCCCCC(=O)NO)nn3)cc2)[C@H](O)[C@H](C)O1" .
Response: Active

Request: Please report inhibition for the following compound: "COc1cccc2c1C(=O)c1c(O)c3c(c(O)c1C2=O)C[C@@](O)(C(C)=O)C[C@@H]3O[C@H]1C[C@H](NCc2ccc(-c3cn(CCCCCC(=O)NO)nn3)cc2)[C@H](O)[C@H](C)O1"
Response: Active

Request: For "COc1cccc2c1C(=O)c1c(O)c3c(c(O)c1C2=O)C[C@@](O)(C(C)=O)C[C@@H]3O[C@H]1C[C@H](NCc2ccc(-c3cn(CCCCC(=O)NO)nn3)cc2)[C@H](O)[C@H](C)O1" , write its inhibition.
Response: Active

Switching to the query record.
Request: Give the reported value of inhibition for this record: "COc1cccc2c1C(=O)c1c(O)c3c(c(O)c1C2=O)C[C@@](O)(C(C)=O)C[C@@H]3O[C@H]1C[C@H](N)[C@H](O)[C@H](C)O1"
Response: Active
